Measured HepSE_hepatitis on Hepatotoxicity follows.
Numbers only.

Reference set, count: 3
compound	HepSE_hepatitis
CCc1nn(CCCN2CCN(c3cccc(Cl)c3)CC2)c(=O)n1CCOc1ccccc1 [NEFAZODONE]	1
Nc1nc2[nH]cc(CCc3ccc(C(=O)N[C@@H](CCC(=O)O)C(=O)O)cc3)c2c(=O)[nH]1 [PEMETREXED]	0
CCCCCN(C)CCC(O)(P(=O)(O)O)P(=O)(O)O [IBANDRONIC ACID]	0

Hey, can you go through the list below and give me HepSE_hepatitis for every item?
1. COC(c1ccccc1)(c1ccccc1)[C@H](Oc1nc(C)cc(C)n1)C(=O)O [AMBRISENTAN]
2. CC(C)/N=c1\cc2n(-c3ccc(Cl)cc3)c3ccccc3nc-2cc1Nc1ccc(Cl)cc1 [CLOFAZIMINE]

Key:
0
1
